# System: HCC-78
# Measurement description: relative viability (nuclei count vs DMSO), 5 days (fraction); higher = more cells survive
# Condition info: first compound 15.81 µM
// values below are reported relative viability

Use these answered entries as a reference point.
- Compound: "O=C(O)CCCCC(CCSCc1ccccc1)SCc1ccccc1 (centres undefined) [CPI-613] + O=C(CCCCCCC(=O)Nc1ccccc1)NO [Vorinostat] (partner 1 µM)"
  relative viability: 0.373
- Compound: "O=C(O)CCCCC(CCSCc1ccccc1)SCc1ccccc1 (centres undefined) [CPI-613] + Cc1nc(Nc2ncc(C(=O)Nc3c(C)cccc3Cl)s2)cc(N2CCN(CCO)CC2)n1 [Dasatinib] (partner 0.075 µM)"
  relative viability: 0.272
- Compound: "O=C(O)CCCCC(CCSCc1ccccc1)SCc1ccccc1 (centres undefined) [CPI-613] + CS(=O)(=O)CCNCc1ccc(-c2ccc3ncnc(Nc4ccc(OCc5cccc(F)c5)c(Cl)c4)c3c2)o1 [Lapatinib] (partner 2 µM)"
  relative viability: 0.591

input: GET /values?readout=relative viability&system=HCC-78&item= O=C(O)CCCCC(CCSCc1ccccc1)SCc1ccccc1 (centres undefined) [CPI-613] + Nc1nc2[nH]cc(CCc3ccc(C(=O)N[C@@H](CCC(=O)O)C(=O)O)cc3)c2c(=O)[nH]1 [Pemetrexed] (partner 0.2 µM)
output: 0.898

* * *

# System: NCI-H1651
# Measurement description: relative viability (nuclei count vs DMSO), 5 days (fraction); higher = more cells survive
# Condition info: first compound 15.81 µM
Consider the following compounds and their measured relative viability readings.
Answer with the value's number alone.

- Compound: "O=C(O)CCCCC(CCSCc1ccccc1)SCc1ccccc1 (stereo not drawn) [CPI-613] + O=C(c1cc(Cc2n[nH]c(=O)c3ccccc23)ccc1F)N1CCN(C(=O)C2CC2)CC1 [Olaparib] (partner 8 µM)"
  relative viability: 0.192
- Compound: "O=C(O)CCCCC(CCSCc1ccccc1)SCc1ccccc1 (stereo not drawn) [CPI-613] + CCNC(=O)c1noc(-c2cc(C(C)C)c(O)cc2O)c1-c1ccc(CN2CCOCC2)cc1 [Luminespib] (partner 0.01 µM)"
  relative viability: 0.932

Switching to the query record.
input: relative viability for O=C(O)CCCCC(CCSCc1ccccc1)SCc1ccccc1 (stereo not drawn) [CPI-613] + N=C(N)NC(=N)NCCc1ccccc1 [Phenformin] (partner 250 µM) ?
output: 0.316

* * *

# Tested on: NCI-H2228
# Measurement description: relative viability (nuclei count vs DMSO), 5 days (fraction); higher = more cells survive
# Condition info: first compound 0.000632 µM
relative viability values, listed per item

Solved entries:
- Compound: "CC(=O)O[C@@]12CO[C@@H]1C[C@H](O)[C@@]1(C)C(=O)[C@H](O)C3=C(C)[C@@H](OC(=O)[C@H](O)[C@@H](NC(=O)OC(C)(C)C)c4ccccc4)C[C@@](O)([C@@H](OC(=O)c4ccccc4)[C@H]21)C3(C)C [Docetaxel] + COc1cccc2cc(-c3nc([C@H]4CC[C@H](C(=O)O)CC4)n4ncnc(N)c34)[nH]c12 [OSI-027] (partner 0.5 µM)"
  relative viability: 0.147
- Compound: "CC(=O)O[C@@]12CO[C@@H]1C[C@H](O)[C@@]1(C)C(=O)[C@H](O)C3=C(C)[C@@H](OC(=O)[C@H](O)[C@@H](NC(=O)OC(C)(C)C)c4ccccc4)C[C@@](O)([C@@H](OC(=O)c4ccccc4)[C@H]21)C3(C)C [Docetaxel] + CCNC(=O)c1noc(-c2cc(C(C)C)c(O)cc2O)c1-c1ccc(CN2CCOCC2)cc1 [Luminespib] (partner 0.01 µM)"
  relative viability: 0.145

input: Look up relative viability: CC(=O)O[C@@]12CO[C@@H]1C[C@H](O)[C@@]1(C)C(=O)[C@H](O)C3=C(C)[C@@H](OC(=O)[C@H](O)[C@@H](NC(=O)OC(C)(C)C)c4ccccc4)C[C@@](O)([C@@H](OC(=O)c4ccccc4)[C@H]21)C3(C)C [Docetaxel] + O=C(CCCCCCC(=O)Nc1ccccc1)NO [Vorinostat] (partner 1 µM)
output: 0.145
